For each record, write down the corresponding binding signal.
# system_name: AGO2 T357M (Homo sapiens, UniProt Q9UKV8 1-859, T357M;S387D;S824A;S828D;S831D;S834A)
# Sequence (Q9UKV8 whole entry T357M/S387D/S824A/S828D/S831D/S834A): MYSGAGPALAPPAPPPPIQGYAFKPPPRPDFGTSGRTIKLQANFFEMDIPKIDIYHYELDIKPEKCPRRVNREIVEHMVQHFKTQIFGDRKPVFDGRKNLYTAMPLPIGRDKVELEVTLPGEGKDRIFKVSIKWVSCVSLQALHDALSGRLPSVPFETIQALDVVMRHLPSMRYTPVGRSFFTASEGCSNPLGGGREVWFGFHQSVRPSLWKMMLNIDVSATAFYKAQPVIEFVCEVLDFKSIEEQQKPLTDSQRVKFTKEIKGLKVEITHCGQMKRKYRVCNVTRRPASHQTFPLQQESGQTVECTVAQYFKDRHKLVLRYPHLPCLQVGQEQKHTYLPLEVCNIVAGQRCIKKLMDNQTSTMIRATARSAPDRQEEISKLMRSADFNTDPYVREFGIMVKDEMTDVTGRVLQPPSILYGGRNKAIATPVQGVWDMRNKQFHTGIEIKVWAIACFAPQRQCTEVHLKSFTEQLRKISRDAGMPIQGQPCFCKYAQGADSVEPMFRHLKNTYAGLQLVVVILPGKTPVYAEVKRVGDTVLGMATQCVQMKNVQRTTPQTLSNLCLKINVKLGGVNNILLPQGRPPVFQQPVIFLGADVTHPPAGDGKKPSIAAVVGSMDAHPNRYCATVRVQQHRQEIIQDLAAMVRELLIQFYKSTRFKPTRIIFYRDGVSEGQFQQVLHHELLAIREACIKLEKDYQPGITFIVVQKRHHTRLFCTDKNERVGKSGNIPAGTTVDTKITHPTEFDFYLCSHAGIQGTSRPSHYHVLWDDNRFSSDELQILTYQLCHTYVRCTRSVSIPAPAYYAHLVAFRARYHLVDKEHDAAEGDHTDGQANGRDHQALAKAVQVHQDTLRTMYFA
# assay_comment: RNA Bind-n-Seq (nitrocellulose filter binding and sequencing); miR-122 guide loaded in AGO2; 60 min incubation; 30 mM Tris pH 8.0, 100 mM potassium acetate, 2 mM magnesium acetate, 0.5 mM TCEP, 0.005% NP-40, 0.01 mg/ml yeast tRNA; 3 nM AGO2-miR-122, 100 nM RNA library; 60; high values mean tight binding
# condition_context: protein: recombinant; tags: His6 (N-terminal, pFastBac HTA)

## Task For the binder shown here, GTATTTCA (ssRNA, constant regions annealed to DNA blockers; guide miR-122 5' phosphate) RNA 1: GAGUUCUACAGUCCGACGAUCCCAACGUAUUUCACACCUGGAAUUCUCGGGUGCCAA RNA 2: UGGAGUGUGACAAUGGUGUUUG DNA 1: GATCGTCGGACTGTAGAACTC DNA 2: TTGGCACCCGAGAATTCCA , give the reported binding signal.
## Result 0.647 fold enrichment over input

## Task For the binder shown here, ACACCTCG (ssRNA, constant regions annealed to DNA blockers; guide miR-122 5' phosphate) RNA 1: GAGUUCUACAGUCCGACGAUCCCAACACACCUCGCACCUGGAAUUCUCGGGUGCCAA RNA 2: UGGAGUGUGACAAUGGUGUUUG DNA 1: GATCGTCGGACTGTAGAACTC DNA 2: TTGGCACCCGAGAATTCCA , give the reported binding signal.
## Result 0.471 fold enrichment over input

## Task For the binder shown here, GCGTTTCA (ssRNA, constant regions annealed to DNA blockers; guide miR-122 5' phosphate) RNA 1: GAGUUCUACAGUCCGACGAUCCCAACGCGUUUCACACCUGGAAUUCUCGGGUGCCAA RNA 2: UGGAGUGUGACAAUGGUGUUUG DNA 1: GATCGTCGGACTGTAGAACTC DNA 2: TTGGCACCCGAGAATTCCA , give the reported binding signal.
## Result 0.632 fold enrichment over input

## Task For the binder shown here, ACGCCTCG (ssRNA, constant regions annealed to DNA blockers; guide miR-122 5' phosphate) RNA 1: GAGUUCUACAGUCCGACGAUCCCAACACGCCUCGCACCUGGAAUUCUCGGGUGCCAA RNA 2: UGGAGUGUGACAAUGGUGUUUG DNA 1: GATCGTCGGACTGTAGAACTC DNA 2: TTGGCACCCGAGAATTCCA , give the reported binding signal.
## Result 0.48 fold enrichment over input

## Task For the binder shown here, ATGCTTTG (ssRNA, constant regions annealed to DNA blockers; guide miR-122 5' phosphate) RNA 1: GAGUUCUACAGUCCGACGAUCCCAACAUGCUUUGCACCUGGAAUUCUCGGGUGCCAA RNA 2: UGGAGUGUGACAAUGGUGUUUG DNA 1: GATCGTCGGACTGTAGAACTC DNA 2: TTGGCACCCGAGAATTCCA , give the reported binding signal.
## Result 0.455 fold enrichment over input

## Task For the binder shown here, ATACTTCA (ssRNA, constant regions annealed to DNA blockers; guide miR-122 5' phosphate) RNA 1: GAGUUCUACAGUCCGACGAUCCCAACAUACUUCACACCUGGAAUUCUCGGGUGCCAA RNA 2: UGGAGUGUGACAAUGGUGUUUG DNA 1: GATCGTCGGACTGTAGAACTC DNA 2: TTGGCACCCGAGAATTCCA , give the reported binding signal.
## Result 0.62 fold enrichment over input
